# ASSAY_DETAILS: in vitro
# EXPERIMENTAL_CONDITIONS: rat, liver microsomes
# Description: Metabolic stability in rat liver microsomes assessed as compound remaining at 1 uM after 30 mins in presence of NADPH by LC-MS/MS analysis
Mark 1.0 for remaining at 0.5 h, 1 µM under 40%, 0.0 if at or over.

Known results for molecules:
CN(C)CCCOc1ccc(/C(=C(/CCCO)c2ccccc2)c2ccc(O)cc2)cc1.Cl = 1.0
CN(C)CCOc1ccc(/C(=C(/CCCF)c2ccccc2)c2ccc(O)cc2)cc1.Cl = 1.0
CN(C)CCOc1ccc(/C(=C(/CCC(F)F)c2ccccc2)c2ccc(O)cc2)cc1.Cl = 0.0
CN(C)CCOc1ccc(/C(=C(/CCCO)c2ccccc2)c2ccc(Br)cc2)cc1.Cl = 1.0

Field: next molecule
[in] Please state whether remaining at 0.5 h, 1 µM is below 40% for `CCN(CC)CCOc1ccc(/C(=C(/CCCO)c2ccccc2)c2ccc(O)cc2)cc1.Cl`
[out] 1.0
